# Cytochrome P450 2D6 (Homo sapiens): AC50 values follow;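 also: CYP2D6 member of a cytochrome P450 panel assay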
# Sequence (P10635 whole entry): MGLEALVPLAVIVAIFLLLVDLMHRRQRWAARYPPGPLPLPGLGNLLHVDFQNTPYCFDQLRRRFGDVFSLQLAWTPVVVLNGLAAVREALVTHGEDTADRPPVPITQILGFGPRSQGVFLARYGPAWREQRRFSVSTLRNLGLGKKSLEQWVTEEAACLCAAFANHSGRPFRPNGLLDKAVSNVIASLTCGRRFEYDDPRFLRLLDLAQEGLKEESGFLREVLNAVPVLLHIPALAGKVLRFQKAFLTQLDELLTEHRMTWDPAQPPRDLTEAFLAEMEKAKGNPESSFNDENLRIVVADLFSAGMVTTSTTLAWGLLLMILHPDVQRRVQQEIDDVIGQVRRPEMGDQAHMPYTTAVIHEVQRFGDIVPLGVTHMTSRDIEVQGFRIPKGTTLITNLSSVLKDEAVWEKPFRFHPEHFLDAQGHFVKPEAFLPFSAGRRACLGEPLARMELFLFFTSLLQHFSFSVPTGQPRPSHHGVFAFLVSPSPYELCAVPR

Field: example entries. Status: answers known.
Compound Structure | Measurement Name | Recorded Value
CNC(=O)c1ccc(-c2sc3nc(N4CCOCC4)c4c(c3c2N)CC(C)(C)OC4)o1 | AC50 | 15.8 µM (inconclusive)
CN(C)c1ncc2nc(-c3cccc(C#N)c3)c(=O)n(CCC#N)c2n1 | AC50 | 39.8 µM (inconclusive)
Fc1ccc(Nc2ncncc2-c2ccccc2C(F)(F)F)cc1 | AC50 | 39.8 µM (inconclusive)

**Q:** Can you share its AC50? I mean this compound: CCc1ccc(OCCCC(=O)Nc2ccc(N3CCCCC3)cc2)cc1
**A:** 1.26 µM (inconclusive)

**Q:** Name the reported AC50 value associated with the compound N=C(N)Nc1ccc(Cl)cc1
**A:** 31.6 µM (inconclusive)

**Q:** Entry under review: COC(=O)c1cc(NS(=O)(=O)c2ccc(N3CCCCC3)c([N+](=O)[O-])c2)cc(C(=O)OC)c1 . Reported AC50?
**A:** 10 µM (inconclusive)

====

molecular target: Cytochrome P450 2C19 (Homo sapiens, UniProt P33261); assay: Cytochrome panel assay with activity outcomes. Panel member name: p450-cyp2c19 Compounds with AC50 equal or less than 10 uM are considered active; type: functional; conditions: read-out: AC50
Sequence (P33261 whole entry): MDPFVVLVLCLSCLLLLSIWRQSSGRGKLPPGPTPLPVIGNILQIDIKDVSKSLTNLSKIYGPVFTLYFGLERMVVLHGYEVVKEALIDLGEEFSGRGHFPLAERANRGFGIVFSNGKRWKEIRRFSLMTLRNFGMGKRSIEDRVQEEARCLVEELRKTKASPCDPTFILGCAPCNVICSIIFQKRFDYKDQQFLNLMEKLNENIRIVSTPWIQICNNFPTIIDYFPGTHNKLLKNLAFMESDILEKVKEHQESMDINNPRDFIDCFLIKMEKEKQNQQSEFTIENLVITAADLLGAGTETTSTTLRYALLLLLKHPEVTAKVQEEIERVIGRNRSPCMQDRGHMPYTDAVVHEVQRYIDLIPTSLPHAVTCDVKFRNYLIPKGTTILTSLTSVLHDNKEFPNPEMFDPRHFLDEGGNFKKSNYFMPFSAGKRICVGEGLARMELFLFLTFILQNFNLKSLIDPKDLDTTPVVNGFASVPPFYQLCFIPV
Measurement Name: AC50

Worked cases, AC50 given:
Compound | Recorded Value
Cc1nc2nc(-c3ccc(Cl)cc3)nn2c(C)c1Cl | 39.8 µM (inconclusive)
COc1ccccc1CC(=O)O/N=C(\N)c1cccc([N+](=O)[O-])c1 | 20 µM (inconclusive)
CCCn1nc(NC(=O)CC(C)C)c2cc3ccccc3nc21 | 7.94 µM (inconclusive)
COCCn1c(=O)c(-c2cn(C)c3ccccc23)nc2cncnc21 | 25.1 µM (inconclusive)
Cc1ncc([N+](=O)[O-])n1CCOC(=O)NC(NCc1ccccc1)C(Cl)(Cl)Cl (configuration not stated) | 14.1 µM (inconclusive)
CCC/N=C/c1c(CCC)nn(-c2nc3ccccc3s2)c1O | 20 µM (inconclusive)

**Q:** // returns reported AC50 for input CC1=NN(c2ccccc2)C(=O)C1C(=O)c1ccc(Cl)cc1 (configuration not stated)
**A:** 39.8 µM (inconclusive)

**Q:** Entry CCn1nnnc1SCC(=O)NC1CCCC1 has what AC50?
**A:** 35.5 µM (inconclusive)

**Q:** Returns the measured AC50 for the input compound. Input: COC(=O)c1cc(NS(=O)(=O)c2ccc(N3CCCCC3)c([N+](=O)[O-])c2)cc(C(=O)OC)c1
**A:** 2.51 µM (inconclusive)

**Q:** Please report the recorded AC50 for O=C(N/N=C/c1ccccn1)c1ccc(Br)o1 .
**A:** 35.5 µM (inconclusive)

**Q:** # AC50 lookup, item CCOc1ccc(/C=N/Nc2nc(N3CCCC3)nc(N3CCCC3)n2)cc1OC
**A:** 39.8 µM (inconclusive)

**Q:** // AC50 lookup, key: CC(=O)Nc1sc2c(c1C(N)=O)CCCC2
**A:** 35.5 µM (inconclusive)

====

target: Corticotropin-releasing factor receptor 2/Corticotropin-releasing factor-binding protein (Homo sapiens, UniProt P24387+Q13324); test: Dose Response confirmation of uHTS hits for small molecule antagonists of the CRF-binding protein and CRF-R2 receptor complex.; format: functional; settings: read-out: IC50_Mean
Sequence (Q13324 whole entry): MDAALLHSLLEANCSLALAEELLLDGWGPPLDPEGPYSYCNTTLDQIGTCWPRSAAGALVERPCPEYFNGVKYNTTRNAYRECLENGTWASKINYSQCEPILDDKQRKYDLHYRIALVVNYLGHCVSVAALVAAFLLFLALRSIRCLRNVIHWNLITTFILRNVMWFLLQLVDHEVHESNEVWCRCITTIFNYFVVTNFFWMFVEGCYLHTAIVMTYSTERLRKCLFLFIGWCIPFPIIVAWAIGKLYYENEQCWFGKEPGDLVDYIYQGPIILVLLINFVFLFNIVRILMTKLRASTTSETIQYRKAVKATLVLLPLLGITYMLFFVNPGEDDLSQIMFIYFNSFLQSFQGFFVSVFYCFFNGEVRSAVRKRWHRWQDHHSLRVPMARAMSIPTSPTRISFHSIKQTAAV
Sequence (P24387 whole entry): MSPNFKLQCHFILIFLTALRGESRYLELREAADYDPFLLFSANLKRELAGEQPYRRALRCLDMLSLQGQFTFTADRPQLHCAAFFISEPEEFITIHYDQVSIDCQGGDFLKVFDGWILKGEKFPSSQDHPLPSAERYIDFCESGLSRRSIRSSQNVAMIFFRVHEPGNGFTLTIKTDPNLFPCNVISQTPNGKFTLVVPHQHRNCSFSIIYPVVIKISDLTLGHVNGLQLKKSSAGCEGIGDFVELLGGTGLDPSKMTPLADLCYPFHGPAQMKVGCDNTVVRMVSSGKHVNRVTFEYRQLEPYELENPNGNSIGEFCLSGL
Active and inactive are the calls of the source.
Assign a class; possible classes are active, inactive

Record excerpt, results attached:
Molecule | Label
Cc1nc2ccccc2n1CCOc1ccc([N+](=O)[O-])cc1 | active
COc1ccccc1CN(C)C(=O)C(c1ccccc1)c1ccccc1 | active
Cc1nc(N)sc1-c1csc(N(C)c2ccc(O)cc2)n1 | inactive
O=C(NC(=S)NCCc1ccccn1)c1ccco1 | inactive
Cc1ccc(OCCOC(=O)Cn2nc(C)c([N+](=O)[O-])c2C)cc1 | inactive

**Q:** For COc1ccc(NC(=O)Nc2ccc3c(c2)OCO3)c(C)c1 , which call appears in the assay record?
**A:** inactive

**Q:** Check the results log: what was the call for Cc1[nH]n(-c2cccc(Cl)c2)c(=O)c1-c1ccc(Cl)cc1 ?
**A:** active

**Q:** Answer briefly: the call reported for N#C/C(=C(/O)Cc1cccc2ccccc12)c1nc2ccccc2s1 in this assay.
**A:** active

**Q:** Please share the test call associated with COC(=O)CN1C(c2ccc(Cl)cc2)=Nc2ccc(Cl)cc2C1c1ccccc1 (stereo not given) .
**A:** inactive

**Q:** Any idea what this test logged for Cc1nnc(NC(=O)C2CCCN(c3ncccn3)C2)s1 (stereo not given) ?
**A:** inactive
